system: DU145; assay: Euclidean distance of Cell Painting phenotypic profile (signed KS, 77 features) to DMSO centroid (dimensionless distance); 5 or 10 uM (library dependent); higher = stronger phenotypic change vs DMSO (phenoactivity); details: 48 h
measured-parameter: Euclidean distance
Number only, no unit.

Consider the following illustrative entries.
[[record]]
molecule = "CC1=C(CC(=O)O)c2cc(F)ccc2/C1=C\\c1ccc([S+](C)[O-])cc1 (centres undefined)"
value_observed = 0.975

[[record]]
molecule = "Cc1ccc([N+](=O)[O-])cc1S(=O)(=O)N(C)/N=C/c1cnc2ccc(Br)cn12"
value_observed = 2.87

[[record]]
molecule = "CC(C)c1c(C(=O)Nc2ccccc2)c(-c2ccccc2)c(-c2ccc(F)cc2)n1CC[C@@H](O)C[C@@H](O)CC(=O)O [Atorvastatin Calcium]"
value_observed = 1.15


Alright, here's another molecule for you.
Fill in the blank: the reported Euclidean distance of CC(C)(C)C(=O)Oc1ccc(S(=O)(=O)Nc2ccccc2C(=O)NCC(=O)O)cc1 [Sivelestat sodium tetrahydrate] is ____.
1.32

====

test system: OVCAR4; test: Euclidean distance of Cell Painting phenotypic profile (signed KS, 77 features) to DMSO centroid (dimensionless distance); 5 or 10 uM (library dependent); higher = stronger phenotypic change vs DMSO (phenoactivity); details: 48 h
measured-parameter: Euclidean distance
Number only, no unit.

[[record]]
molecule = "O=C(CCCN1CCN(c2ccccn2)CC1)c1ccc(F)cc1 [Azaperone]"
value_observed = 1.09


Alright, here's another molecule for you.
Fill in the blank: the reported Euclidean distance of CC1=C(C(=O)Nc2cc3cn[nH]c3cc2F)C(c2ccc(C(F)(F)F)cc2)CC(=O)N1 (configuration not stated) is ____.
2.51

====

Listed below: Euclidean distance values for each entry.
test system: A549; experiment: Euclidean distance of Cell Painting phenotypic profile (signed KS, 77 features) to DMSO centroid (dimensionless distance); 5 or 10 uM (library dependent); higher = stronger phenotypic change vs DMSO (phenoactivity); conditions: 48 h
Number only, no unit.

Consider the following illustrative entries.
[[record]]
molecule = "C=C1[C@H](CO)[C@@H](O)C[C@@H]1n1cnc2c(=O)[nH]c(N)nc21 [Entecavir]"
value_observed = 1.16

[[record]]
molecule = "Cc1cnc(-c2cnc(NCCNc3ccc(C#N)cn3)nc2-c2ccc(Cl)cc2Cl)[nH]1"
value_observed = 2.18

[[record]]
molecule = "Nc1nc2[nH]cc(CCc3ccc(C(=O)N[C@@H](CCC(=O)O)C(=O)O)cc3)c2c(=O)[nH]1 [Pemetrexed Disodium Hydrate]"
value_observed = 2.97

[[record]]
molecule = "Clc1ccc2c(N3CCN(CCCN4CCN(c5ccnc6cc(Cl)ccc56)CC4)CC3)ccnc2c1 [Piperaquine phosphate]"
value_observed = 1.33

[[record]]
molecule = "O=C(CCCCCCNC(=O)c1cnc(N(c2ccccc2)c2ccccc2Cl)nc1)NO [Citarinostat (ACY-241)]"
value_observed = 2.05


Alright, here's another molecule for you.
Fill in the blank: the reported Euclidean distance of COc1c(C)c(C(=O)c2ccc(N)c(C(=O)O)c2)n2ccccc12 is ____.
1.03

====

system: HEPG2; assay: Euclidean distance of Cell Painting phenotypic profile (signed KS, 77 features) to DMSO centroid (dimensionless distance); 5 or 10 uM (library dependent); higher = stronger phenotypic change vs DMSO (phenoactivity); conditions: 48 h
Counter-ions that a name gives are not always drawn.
Categorized via Euclidean distance: b0: < 0.7; b1: ≥ 0.7 and < 1; b2: ≥ 1

Before answering, review these 5 worked examples.
[[record]]
molecule = "O=C1CC[C@H](N2Cc3c(OCc4ccc(CN5CCOCC5)cc4)cccc3C2=O)C(=O)N1 [Iberdomide(CC220)]"
class_label = "b2"

[[record]]
molecule = "COc1ccc(CCC(=O)Nc2nc3ccc(Cl)cc3s2)cc1OC"
class_label = "b2"

[[record]]
molecule = "Cc1cc2c(cc1S(N)(=O)=O)S(=O)(=O)CCC2"
class_label = "b2"

[[record]]
molecule = "C[C@@H]1CN(C(=O)c2ccc(NC(=O)c3cc(O[C@H](C)c4c(Cl)ccc(F)c4Cl)c(N)nn3)cc2)C[C@H](C)N1 [Ensartinib (X-396) dihydrochloride]"
class_label = "b2"

[[record]]
molecule = "CC(=O)/N=c1/sc(S(N)(=O)=O)nn1C [Methazolamide]"
class_label = "b1"


Into which category would you place Nc1nc(CC(=O)Nc2ccc(CCNC[C@H](O)c3ccccc3)cc2)cs1 ?
b1

Into which category would you place O=C(Oc1cc(S(=O)(=O)c2ccccc2)ccc1[N+](=O)[O-])c1ccc(Cl)cc1 ?
b2
